- TARGET OF ASSAY: human 5-HT4(a) (Homo sapiens)
- Construct: host or cells: GeneBlAzer HTR4-CRE-bla CHO-K1 cells
- ASSAY PROCEDURE: Evaluation of agonistic activity in CHO-K1 cells expressing human 5-HT4(a) (GeneBlAzer HTR4-CRE-bla CHO-K1, beta-lactamase reporter)
- Format: cell-based
- SETUP CONDITIONS: CHO-K1 cells stably expressing human 5-HT4(a)
pEC50: −log10 of the molar value. Structures can show the parent of a compound that is named as a salt.
PROPERTY: pEC50

CCCc1cc(N2CCC[C@H]2C)nc(Nc2ccc(F)c(C(F)(F)F)c2)n1 [Example 322] = 9.82

1. CCCc1cc(N2CC[C@H](NCc3ccccc3F)C2)nc(Nc2cccc(C#N)c2)n1 [Example 106]
2. CCCc1cc(N2CC[C@H](N)C2)nc(Nc2cccc(SC)c2)n1 [Example 345, dihydrochloride]
Task: Sort 1 and 2 by pEC50 descending and give the first. The response must carry the label of the picked entry.
Result: 2

###

- TARGET OF ASSAY: human 5-HT4(a) (Homo sapiens)
- ASSAY PROCEDURE: Evaluation of agonistic activity in CHO-K1 cells expressing human 5-HT4(a) (GeneBlAzer HTR4-CRE-bla CHO-K1, beta-lactamase reporter)
- SETUP CONDITIONS: CHO-K1 cells stably expressing human 5-HT4(a)
pEC50: −log10 of the molar value.
PROPERTY: pEC50

CCCc1cc(N2CC[C@H](NCC(C)(C)C)C2)nc(Nc2cccc(C#N)c2)n1 = 11.30

1. CCCc1cc(N2CC[C@H](NC(=O)Cc3cccs3)C2)nc(Nc2ccc(C)c(C#N)c2)n1
2. CCCc1cc(N2CCC(NC(C)=O)C2)nc(Nc2cccc(Cl)c2)n1 (stereo not drawn)
Task: Of 1 and 2 , which one carries the higher reported pEC50? Answer = label.
Result: 1

###

- TARGET OF ASSAY: human 5-HT4(a) (Homo sapiens, UniProt Q13639)
- Sequence (Q13639 1-387 isoform Q13639-2): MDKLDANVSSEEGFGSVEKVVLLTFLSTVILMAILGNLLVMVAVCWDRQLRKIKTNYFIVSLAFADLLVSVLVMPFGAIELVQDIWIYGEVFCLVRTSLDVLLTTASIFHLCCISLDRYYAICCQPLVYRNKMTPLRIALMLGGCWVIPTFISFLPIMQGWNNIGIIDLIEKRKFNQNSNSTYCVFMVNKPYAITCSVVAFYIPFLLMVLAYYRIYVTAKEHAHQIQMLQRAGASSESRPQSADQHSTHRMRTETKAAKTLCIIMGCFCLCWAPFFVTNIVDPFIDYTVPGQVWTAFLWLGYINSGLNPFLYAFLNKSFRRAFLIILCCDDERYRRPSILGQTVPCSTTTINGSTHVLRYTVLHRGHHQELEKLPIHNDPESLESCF
- ASSAY PROCEDURE: Evaluation of agonistic activity in CHO-K1 cells expressing human 5-HT4(a) (GeneBlAzer HTR4-CRE-bla CHO-K1, beta-lactamase reporter)
- SETUP CONDITIONS: CHO-K1 cells stably expressing human 5-HT4(a)
Where a name gives a salt, the structure may show the parent alone.
PROPERTY: EC50 (nM)

A. CCCc1cc(N2CC[C@H](NC(=O)CCCN(C)C)C2)nc(Nc2cccc(C#N)c2)n1
B. CCCc1cc(N2CC[C@H](N)C2)nc(Nc2ccc(F)c(C#N)c2)n1 [Example 353, dihydrochloride]
Task: When their EC50 values are compared, which is larger, A or B ? Your answer should be the label attached to the chosen record.
Result: A

A. CCCc1cc(N2CC[C@H](NC(=O)COC)C2)nc(Nc2cccc(C#N)c2)n1
B. CCCc1cc(N2CC[C@H](NC3CN(C(=O)OC(C)(C)C)C3)C2)nc(Nc2cccc(C#N)c2)n1
C. CCCc1cc(N2CC[C@H](NC(=O)CO)C2)nc(Nc2ccc(N)c(C(F)(F)F)c2)n1
D. CCCc1cc(N2CCC(NC(C)=O)C2)nc(Nc2ccc(C)c(Cl)c2)n1 (stereo not shown)
Task: Hey, can you sort those molecules up there by EC50, smallest first? Use the labels to give the ranking in the order requested.
Result: C, B, D, A

a. CCCCCN[C@H]1CCN(c2cc(CCC)nc(Nc3cccc(C#N)c3)n2)C1
b. CCCCc1cc(N2CC[C@H](NC(C)=O)C2)nc(Nc2ccc(F)c(N)c2)n1
Task: Lowest EC50? choose a or b Could you answer with the label of the item you picked?
Result: b
(b: 0.012 nM, a: 0.041 nM)
